measurement-description: self-splicing fitness, log relative to wild type (ln ratio); higher = more splicing; Tetrahymena group I intron in knt gene, E. coli kanamycin selection, DiMSum; sequences stand for … in CUCUCU…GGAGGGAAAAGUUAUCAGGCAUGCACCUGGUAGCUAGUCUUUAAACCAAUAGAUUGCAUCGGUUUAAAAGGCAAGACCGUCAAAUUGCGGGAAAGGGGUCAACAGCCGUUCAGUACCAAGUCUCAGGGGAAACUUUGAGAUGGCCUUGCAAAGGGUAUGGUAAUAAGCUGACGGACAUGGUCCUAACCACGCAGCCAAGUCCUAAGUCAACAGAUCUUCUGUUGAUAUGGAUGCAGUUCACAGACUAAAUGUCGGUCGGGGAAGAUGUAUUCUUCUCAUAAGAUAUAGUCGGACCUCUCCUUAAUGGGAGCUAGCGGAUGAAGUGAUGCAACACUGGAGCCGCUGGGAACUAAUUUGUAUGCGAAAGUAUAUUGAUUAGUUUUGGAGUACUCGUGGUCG;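 note: selection with 25 µg/mL kanamycin versus none on LB agar overnight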
measurement-context: 37 °C
endpoint-name: self-splicing fitness (ln)
When you answer, write just the number.

Use these answered entries as a reference point.
GCCGAGCAAUAUUACGCAAA; -1.05
ACCGAGCAAUAUUACGGAUG; -1.85
GACUAGCAAUAUUACGAACG; -0.144
ACAUAGCAAUAUUACGCCAC; -0.959
UUUUAGCAAUAUUACGAUAU; -1.42

Look at this sequence and give its reported self-splicing fitness (ln). GCCGAGCAAUAUUACGGCGC -0.221

Look at this sequence and give its reported self-splicing fitness (ln). UUACAGCAAUAUUACGCCUG 0.0548

Look at this sequence and give its reported self-splicing fitness (ln). AAGUAGCAAUAUUACGAAUG -1.72

Look at this sequence and give its reported self-splicing fitness (ln). UCGUAGCAAUAUUACGUCUG -0.589

Look at this sequence and give its reported self-splicing fitness (ln). AGAAAGCAAUAUUACGGCUU -0.7

Look at this sequence and give its reported self-splicing fitness (ln). AAUUAGCAAUAUUACGGUUU -0.716

---

measurement-description: self-splicing fitness, log relative to wild type (ln ratio); higher = more splicing; Tetrahymena group I intron in knt gene, E. coli kanamycin selection, DiMSum; sequences stand for … in CUCUCU…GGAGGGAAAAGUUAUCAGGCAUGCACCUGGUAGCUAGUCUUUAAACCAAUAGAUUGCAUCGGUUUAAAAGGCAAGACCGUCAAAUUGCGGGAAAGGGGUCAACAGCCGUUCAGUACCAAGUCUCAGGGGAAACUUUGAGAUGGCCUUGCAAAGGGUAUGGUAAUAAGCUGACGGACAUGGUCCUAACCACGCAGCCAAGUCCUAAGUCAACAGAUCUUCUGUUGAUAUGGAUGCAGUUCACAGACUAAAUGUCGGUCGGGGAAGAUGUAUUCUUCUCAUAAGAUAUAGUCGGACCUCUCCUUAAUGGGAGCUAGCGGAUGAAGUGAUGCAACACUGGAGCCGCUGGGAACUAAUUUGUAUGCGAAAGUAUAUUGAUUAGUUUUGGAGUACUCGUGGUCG
measurement-context: 30 °C
endpoint-name: self-splicing fitness (ln)
When you answer, write just the number.

Use these answered entries as a reference point.
CGGUAGCAAUAUUACGUUGU; -4.62
AACCAGCAAUAUUACGAGGU; -3.14
AAAAAGCAAUAUUACGACUG; -1.14
CGAUAGCAAUAUUACGAUUG; -2.27
AAGUAGCAAUAUUACGGCAG; -2.54

Look at this sequence and give its reported self-splicing fitness (ln). GAGCAGCAAUAUUACGAACG -2.53

Look at this sequence and give its reported self-splicing fitness (ln). AUUCAGCAAUAUUACGGUGC -2.13

Look at this sequence and give its reported self-splicing fitness (ln). GUAAAGCAAUAUUACGAUCA -0.396

---

The entries below are paired with their reported self-splicing fitness (ln).
measurement-description: self-splicing fitness, log relative to wild type (ln ratio); higher = more splicing; Tetrahymena group I intron in knt gene, E. coli kanamycin selection, DiMSum; sequences stand for … in CUCUCU…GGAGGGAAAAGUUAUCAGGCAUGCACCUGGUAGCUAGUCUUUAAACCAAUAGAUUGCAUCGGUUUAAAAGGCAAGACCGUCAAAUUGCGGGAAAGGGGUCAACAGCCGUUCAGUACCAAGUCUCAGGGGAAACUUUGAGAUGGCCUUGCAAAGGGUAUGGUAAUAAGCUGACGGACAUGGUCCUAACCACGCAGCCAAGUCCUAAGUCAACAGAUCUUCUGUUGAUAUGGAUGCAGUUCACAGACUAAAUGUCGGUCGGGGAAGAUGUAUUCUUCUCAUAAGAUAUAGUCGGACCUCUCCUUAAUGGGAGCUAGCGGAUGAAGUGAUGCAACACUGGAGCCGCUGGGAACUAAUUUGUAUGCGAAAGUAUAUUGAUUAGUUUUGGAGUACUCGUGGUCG
measurement-context: 30 °C
When you answer, write just the number.

Use these answered entries as a reference point.
UCCCAGCAAUAUUACGUAAA; -0.605
ACGUAGCAAUAUUACGGCCA; 0.73
GCGAAGCAAUAUUACGACGU; -2.69
CAGAAGCAAUAUUACGUCAC; -3.02
GCUCAGCAAUAUUACGGUUG; -4.11
UACCAGCAAUAUUACGAAAG; -1.95
CCAUAGCAAUAUUACGAGCG; -0.63

Could you now look at the following sequence, please?
Look at this sequence and give its reported self-splicing fitness (ln). AGUGAGCAAUAUUACGCGUC -1.51

---

measurement-description: self-splicing fitness, log relative to wild type (ln ratio); higher = more splicing; Tetrahymena group I intron in knt gene, E. coli kanamycin selection, DiMSum; sequences stand for … in CUCUCU…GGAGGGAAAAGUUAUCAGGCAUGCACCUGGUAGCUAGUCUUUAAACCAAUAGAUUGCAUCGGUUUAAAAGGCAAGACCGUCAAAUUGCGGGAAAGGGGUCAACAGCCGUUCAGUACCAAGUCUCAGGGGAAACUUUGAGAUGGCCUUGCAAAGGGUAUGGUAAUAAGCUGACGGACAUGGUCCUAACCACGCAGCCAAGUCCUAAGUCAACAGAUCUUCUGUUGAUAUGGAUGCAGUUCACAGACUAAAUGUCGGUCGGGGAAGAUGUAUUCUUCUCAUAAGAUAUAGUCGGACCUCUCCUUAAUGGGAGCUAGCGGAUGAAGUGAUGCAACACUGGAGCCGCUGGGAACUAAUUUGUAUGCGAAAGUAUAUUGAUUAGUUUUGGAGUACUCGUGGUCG
measurement-context: 30 °C
The entries below are paired with their reported self-splicing fitness (ln).
When you answer, write just the number.

GAAGAGCAAUAUUACGAUAC; -2.75

Look at this sequence and give its reported self-splicing fitness (ln). GUGCAGCAAUAUUACGUCUC -0.469

Look at this sequence and give its reported self-splicing fitness (ln). UUGGAGCAAUAUUACGGCCU -2.26

Look at this sequence and give its reported self-splicing fitness (ln). CUUUAGCAAUAUUACGUCGU -2.27

Look at this sequence and give its reported self-splicing fitness (ln). UUUCAGCAAUAUUACGGGAA -1.96

Look at this sequence and give its reported self-splicing fitness (ln). AAAAAGCAAUAUUACGUCAG -2.75

---

measurement-description: self-splicing fitness, log relative to wild type (ln ratio); higher = more splicing; Tetrahymena group I intron in knt gene, E. coli kanamycin selection, DiMSum; sequences stand for … in CUCUCU…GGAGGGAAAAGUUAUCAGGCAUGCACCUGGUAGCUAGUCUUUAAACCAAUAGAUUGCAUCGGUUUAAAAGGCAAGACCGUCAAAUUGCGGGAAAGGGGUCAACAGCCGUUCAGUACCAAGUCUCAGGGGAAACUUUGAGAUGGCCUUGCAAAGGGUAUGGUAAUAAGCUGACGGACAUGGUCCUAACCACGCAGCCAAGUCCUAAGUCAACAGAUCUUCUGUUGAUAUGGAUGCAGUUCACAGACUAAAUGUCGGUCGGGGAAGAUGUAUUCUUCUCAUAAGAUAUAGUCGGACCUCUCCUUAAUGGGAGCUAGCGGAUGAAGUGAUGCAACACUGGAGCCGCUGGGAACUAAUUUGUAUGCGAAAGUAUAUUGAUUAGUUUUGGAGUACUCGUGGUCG
measurement-context: 37 °C
// f strictly below -1 in self-splicing fitness (ln); t otherwise

Some entries whose results are on file:
UGCAAGCAAUAUUACGUGUA; f
CACAAGCAAUAUUACGUACU; t
GUGCAGCAAUAUUACGGGGA; f
ACGUAGCAAUAUUACGUAUC; f
UGUGAGCAAUAUUACGCGGA; f
UCCGAGCAAUAUUACGGGCG; f
UAGAAGCAAUAUUACGUCGC; f
CAGAAGCAAUAUUACGAUAG; t
GUCCAGCAAUAUUACGCGAG; t
GUCUAGCAAUAUUACGUGCU; f

Decide: is the reported value of self-splicing fitness (ln) for UACGAGCAAUAUUACGUAGU equal to or greater than -1? f

Decide: is the reported value of self-splicing fitness (ln) for GACAAGCAAUAUUACGAAAA equal to or greater than -1? f

Decide: is the reported value of self-splicing fitness (ln) for GGGGAGCAAUAUUACGAGGU equal to or greater than -1? f

Decide: is the reported value of self-splicing fitness (ln) for UCGAAGCAAUAUUACGGUUC equal to or greater than -1? f
